Test system: Streptococcus pneumoniae
PROTOCOL DETAILS: In vitro antibacterial activity against Streptococcus pneumoniae strain 5649.
Format: functional
Each entry below carries its reported MIC.
// units = µg/mL; emit number, no label

Exercise: Missing value: MIC, Streptococcus pneumoniae, entry CC[C@H]1OC(=O)[C@H](C)C(=O)[C@H](C)[C@@H](O[C@@H]2O[C@H](C)C[C@H](N(C)C)[C@H]2O)[C@](C)(OC/C=C/c2ccccc2)C[C@@H](C)C(=O)[C@H](C)[C@@H](O)[C@]1(C)O . Fill in?
Key: 2

Exercise: Missing value: MIC, Streptococcus pneumoniae, entry CC[C@H]1OC(=O)[C@H](C)C(=O)[C@H](C)[C@@H](O[C@@H]2O[C@H](C)C[C@H](N(C)C)[C@H]2O)[C@](C)(OCC=Cc2cnc3ccccc3c2)C[C@@H](C)C(=O)[C@H](C)[C@H]2NC(=O)O[C@@]21C . Fill in?
Key: 0.25

Exercise: Missing value: MIC, Streptococcus pneumoniae, entry CC[C@H]1OC(=O)[C@H](C)C(=O)[C@H](C)[C@@H](O[C@@H]2O[C@H](C)C[C@H](N(C)C)[C@H]2O)[C@@](C)(OC/C=C/c2cnc3ccccc3c2)C[C@@H](C)C(=O)[C@H](C)[C@@H](O)[C@]1(C)O . Fill in?
Key: 0.25

Exercise: Missing value: MIC, Streptococcus pneumoniae, entry C=CCO[C@@]1(C)C[C@@H](C)C(=O)[C@H](C)[C@@H](O)[C@](C)(O)[C@@H](CC)OC(=O)[C@H](C)C(=O)[C@H](C)[C@H]1O[C@@H]1O[C@H](C)C[C@H](N(C)C)[C@H]1O . Fill in?
Key: 8
